# maps each entry to its potentiation
- assay system: D(2) dopamine receptor (Homo sapiens)
- protocol notes: Beta-Arrestin HTS for Positive Allosteric Modulators of the Human D2 Dopamine Receptor: Potentiators
- measurement parameters: DiscoveRx D2 beta-arrestin cells, luminescence, 90 min; stronger effect = higher value; 100% = 57 uM dopamine signal
Hit rate of the full screen: of about 360,000 compounds, about 810 (0.23%) were called active. The list comes from a sample in which actives are over-represented; it also holds close analogues and randomly drawn compounds.
Field format: number, assumed %, no unit text.

CC1=C(C(=O)N(C(C)C)C(C)C)CC(CC(=O)NCCCCc2ccccc2)C(=O)N1CCC1=CCCCC1 (stereo not given)
-4.46
COc1cccc(-c2cnc(OC(C)(C)C)nc2OC(C)(C)C)c1
-5.2
Cn1c(=NC(=O)c2ccc3c(c2)OCCO3)sc2cc(S(C)(=O)=O)ccc21
-10.1

### Prompt For the molecule CC(NC(=O)CC1SC(N)=NC1=O)c1ccccc1 (stereo not given) , what potentiation is on record?
### Response -0.5

### Prompt For the molecule CCCN(CC1CC1)C(=O)COC(=O)c1ccc(C)cc1O , what potentiation is on record?
### Response -24.9

====

- assay system: D(2) dopamine receptor (Homo sapiens) (UniProt P14416)
- Sequence (P14416 whole entry, looked up): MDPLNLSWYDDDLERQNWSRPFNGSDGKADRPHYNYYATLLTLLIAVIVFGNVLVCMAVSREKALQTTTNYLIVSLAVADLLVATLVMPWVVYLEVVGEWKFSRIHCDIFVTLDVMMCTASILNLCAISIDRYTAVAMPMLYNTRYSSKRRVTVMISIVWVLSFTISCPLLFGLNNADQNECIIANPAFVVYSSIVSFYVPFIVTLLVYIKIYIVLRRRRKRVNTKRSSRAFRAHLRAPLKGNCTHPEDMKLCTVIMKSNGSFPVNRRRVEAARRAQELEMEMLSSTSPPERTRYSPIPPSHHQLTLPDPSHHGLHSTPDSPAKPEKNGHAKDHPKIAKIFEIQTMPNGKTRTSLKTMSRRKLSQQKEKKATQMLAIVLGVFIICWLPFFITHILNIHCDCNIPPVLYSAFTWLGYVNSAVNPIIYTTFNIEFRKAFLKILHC
- protocol notes: Beta-Arrestin HTS for Positive Allosteric Modulators of the Human D2 Dopamine Receptor: Potentiators
- measurement parameters: DiscoveRx D2 beta-arrestin cells, luminescence, 90 min; stronger effect = higher value; 100% = 57 uM dopamine signal
- Excerpt: There is great interest in identifying small molecule ligands for G-protein coupled receptors (GPCRs) as nearly 50% of all FDA-approved drugs target these important receptor proteins. […] Amongst the dopamine receptors (DARs), the D2 is arguably one of the most validated drug targets in neurology and psychiatry. For instance, all receptor-based antiparkinsonian drugs primarily work via stimulating the D2 DAR, whereas all FDA-approved antipsychotic agents are antagonists of this receptor. […]
The whole screen tested about 360,000 compounds, of which about 810 (0.23%) were called active. This is one part of a sample in which actives are shown more often than they occur.
test readout: potentiation (%)
Field format: number, assumed %, no unit text.

Some solved entries appear below for comparison.
COc1ccc(CN(C(=O)CSc2nnc(-c3ccc(OC)c(OC)c3)o2)c2ccc(F)cc2)cc1
-14.5
Cc1nn(CC(=O)Nc2ccc(C#N)cc2)c(C)c1[N+](=O)[O-]
-8.67
CN(C)S(=O)(=O)c1ccc(N2CCCC2)c(C(=O)NCc2ccccc2)c1
-8.01
O=C(c1cccnc1)N(c1cc2sc(=O)oc2c2ccccc12)S(=O)(=O)c1ccccc1
61.6
Cc1cc(C)cc(C(=O)N(CCc2ccccc2)C2=CC3CCC(C2)N3C)c1 (stereo not drawn)
-8.31

Next, consider the following compound.
### Prompt Request body: readout potentiation, system D(2) dopamine receptor (Homo sapiens) (UniProt P14416), query C[C@@H](NC(=O)[C@@H]1Cc2ccccc2CN1)C(=O)NC1CCCC1 . Return the value.
### Response -3.01

====

- assay system: D(2) dopamine receptor (Homo sapiens)
- protocol notes: Beta-Arrestin HTS for Positive Allosteric Modulators of the Human D2 Dopamine Receptor: Potentiators
- measurement parameters: DiscoveRx D2 beta-arrestin cells, luminescence, 90 min; stronger effect = higher value; 100% = 57 uM dopamine signal
Out of some 360,000 compounds screened, about 810 (0.23%) were called active. Only a selection was taken, and actives are over-represented in it overall.
test readout: potentiation

Some solved entries appear below for comparison.
O=C(CC(CC(=O)c1ccccc1)c1ccco1)c1ccccc1
-4.42% (inactive)
COc1ccc(N2CC(C(=O)NCCS(=O)(=O)N3CCN(c4ccccc4)CC3)CC2=O)cc1 (stereo unspecified)
-8.09% (inactive)
CCCC(=O)N1c2ccc(-c3csc(N)n3)cc2CC1C (stereo unspecified)
-21.2% (inactive)
CC(C)(C)C(=O)OCc1nc(-c2ccc(O)c(O)c2)cs1
70.4% (active)
COc1ccc(C(C)(O)c2nc(-c3ccc(C)c(C)c3)cs2)cc1 (stereo unspecified)
-10.5% (inactive)

Next, consider the following compound.
### Prompt For the compound O=S(=O)(Cc1cc(Cl)nc(-c2cccnc2)n1)c1ccccc1 , what potentiation is on record?
### Response 11.9% (inactive)

====

# maps each entry to its potentiation
- assay system: D(2) dopamine receptor (Homo sapiens)
- protocol notes: Beta-Arrestin HTS for Positive Allosteric Modulators of the Human D2 Dopamine Receptor: Potentiators
- measurement parameters: DiscoveRx D2 beta-arrestin cells, luminescence, 90 min; stronger effect = higher value; 100% = 57 uM dopamine signal
Screen size: about 360,000 compounds; about 810 (0.23%) were called active. The sample holds actives, similar compounds and a random draw of the others, so the mix is not that of the screen.
Field format: number, assumed %, no unit text.

Some solved entries appear below for comparison.
Cc1ccc(N(CC(=O)NCC2CCCO2)C(=O)CNS(=O)(=O)c2ccc(Cl)cc2)cc1 (stereo not given)
0.715
COC(=O)[C@]1(C)N[C@H](c2ccc(-c3ccc(Cl)c(Cl)c3)cc2)[C@@H]2C(=O)N(C)C(=O)[C@@H]21
-3.41

### Prompt For the compound Oc1ccc(-c2onc3ccc(Cl)cc23)cc1 , what potentiation is on record?
### Response 50.4

### Prompt For the compound COc1ccc(-c2csc(C(O)c3cccc(Cl)c3)n2)cn1 (stereo not given) , what potentiation is on record?
### Response -10.4

### Prompt For the compound CC1=NN(c2ccc(Cl)c(C(=O)O)c2)C(=O)/C1=C/c1ccc(-c2ccccc2[N+](=O)[O-])o1 , what potentiation is on record?
### Response -7.86

### Prompt For the compound CC(=O)N1CCN(c2ccc(NCc3ccc(C(C)C)cc3)cc2)CC1 , what potentiation is on record?
### Response 62.8

### Prompt For the compound COCCNC(=O)C1CCN(C(=O)C2CC(=O)N(c3ccc(C)cc3)C2)CC1 (stereo not given) , what potentiation is on record?
### Response -6.43

### Prompt For the compound COc1ccc(-c2onc3ccc(C(C)=O)cc23)cc1 , what potentiation is on record?
### Response 28

### Prompt For the compound Cc1ccc(S(=O)(=O)N2CCN(C(=O)c3cc(S(=O)(=O)N4CCOCC4)ccc3F)CC2)cc1 , what potentiation is on record?
### Response 0.45

### Prompt For the compound OCC[C@H]1C[C@@H](O)[C@H](O)[C@@]2(OCCc3ccccc32)O1 , what potentiation is on record?
### Response -8.36

====

# maps each entry to its potentiation
- assay system: D(2) dopamine receptor (Homo sapiens)
- protocol notes: Beta-Arrestin HTS for Positive Allosteric Modulators of the Human D2 Dopamine Receptor: Potentiators
- measurement parameters: DiscoveRx D2 beta-arrestin cells, luminescence, 90 min; stronger effect = higher value; 100% = 57 uM dopamine signal
Out of some 360,000 compounds screened, about 810 (0.23%) were called active. The entries come from a sample that favours actives as a whole.
Field format: number, assumed %, no unit text.

Some solved entries appear below for comparison.
COc1ccc(N(CC(=O)NC2CCCCC2)C(=O)CNC(=O)c2ccco2)c(OC)c1
-8.59
CC(C)NC(=O)C1(C)CCCCCN1C(=O)c1ccc(-c2ccccc2)cc1 (configuration not stated)
-9.96
COc1cccc(N=c2oc3c(C)ncc(CO)c3cc2C(N)=O)c1
-0.831
O=C(NCc1cc(F)cc(C(F)(F)F)c1)C1CCC(=O)N(C2CCCC2)C1 (configuration not stated)
2.66
N/C(=N\OC(=O)Cc1ccccc1[N+](=O)[O-])c1ccc(Br)cc1
18.7
COc1ccc(-c2nnc(SC(C)C(=O)NC3CC3)o2)cc1 (configuration not stated)
0.965
COc1ccc(C(=O)O/N=C(\N)Cc2ccc(Cl)cc2Cl)cc1OC
94.6
CC1(C)CCSC(/C=C/c2ccccc2)=N1
-38.8
O=C1C=C(c2cccc(Br)c2)C[C@@H](c2ccc(F)cc2)C1
-7.26
O=C(CCC(=O)N1CCN(S(=O)(=O)c2ccc(Cl)cc2)CC1)NCc1cccc(C(F)(F)F)c1
-1.2

### Prompt For the compound O=C(Nc1ccc2cn[nH]c2c1)c1ccc(S(=O)(=O)N2CCOCC2)cc1 , what potentiation is on record?
### Response -3.76

### Prompt For the compound CCN(CC)CCCC(C)n1c2nc(=O)[nH]c(=O)c-2nc2cc(Cl)ccc21 (configuration not stated) , what potentiation is on record?
### Response 80.2

### Prompt For the compound CCCN(CCc1ccccc1)C1CCc2c(O)cccc2C1 (configuration not stated) , what potentiation is on record?
### Response 99

====

- assay system: D(2) dopamine receptor (Homo sapiens)
- protocol notes: Beta-Arrestin HTS for Positive Allosteric Modulators of the Human D2 Dopamine Receptor: Potentiators
- measurement parameters: DiscoveRx D2 beta-arrestin cells, luminescence, 90 min; 100% = 57 uM dopamine signal
Hit rate of the full screen: of about 360,000 compounds, about 810 (0.23%) were called active. No stated cut-off is given here; in the data, active means potentiation above about 50%; inconclusive means mostly about 30% to 49%; inactive means weaker than that. This excerpt belongs to a sample that is enriched for actives.
Answer with one of the outcomes given here: 1.0 = active, 0.0 = inactive

O=C(C/C(=N\NC(=O)c1ccccc1Br)C(F)(F)F)c1cccs1
0.0
CC(C)Cc1nnc(NC(=O)CCC(=O)Nc2ccc3cn[nH]c3c2)s1
0.0
COc1ccc(-c2nnc(SC(=O)N3c4ccccc4Sc4ccccc43)o2)cc1
1.0
Cc1ccc(S(=O)(=O)N2CCOCC2)cc1C(=O)NC(=S)N(Cc1ccccc1)C(C)C
0.0
COc1ccc(/C=C(\NC(=O)c2ccc(OCC(C)C)cc2)C(=O)OCc2ccco2)cc1
0.0
CC1(C)NC(=O)N(CC(=O)Nc2cc(C(F)(F)F)cc(C(F)(F)F)c2)C1=O
0.0

### Prompt Look up the recorded call for Cc1ccc(NC(=O)COC(=O)CN2CCCCCC2=O)c(C)c1 in this test.
### Response 0.0

### Prompt Look up the recorded call for Cc1ccc(Cc2c(-c3ccco3)nc3ccc(Cl)cn23)cc1 in this test.
### Response 0.0

### Prompt Look up the recorded call for CCCCN1C(=S)NC[C@@H]1C(C)CC (some centres undefined) in this test.
### Response 0.0

### Prompt Look up the recorded call for Cc1cc(C)n(CC(=O)Nc2ccc([N+](=O)[O-])cc2)n1 in this test.
### Response 1.0

### Prompt Look up the recorded call for COc1ccc(C(=O)n2nc(-c3ccc(Cl)cc3)nc2N)cc1OC in this test.
### Response 0.0

### Prompt Look up the recorded call for CCc1nc2ccc(C(=O)N(C)CCN(C)C)cn2c1N(CC)CCOC in this test.
### Response 0.0

### Prompt Look up the recorded call for CNc1cnc(-c2cc(OC)c(OC)c(OC)c2)cn1 in this test.
### Response 0.0

### Prompt Look up the recorded call for COc1ccc(C(=O)NCCNc2ccc([N+](=O)[O-])cn2)cc1 in this test.
### Response 0.0

### Prompt Look up the recorded call for Cc1ccc(NC(=O)CS(=O)CC(=O)N(c2ccccc2)C(C)C(=O)NC2CCCC2)cc1 (centres undefined) in this test.
### Response 0.0

### Prompt Look up the recorded call for O=C(CCNS(=O)(=O)c1ccccc1C(F)(F)F)Nc1ccncc1 in this test.
### Response 0.0

### Prompt Look up the recorded call for CCC(C)c1ccccc1NC(=O)CN(C)CC(=O)Nc1ccccc1SC (centres undefined) in this test.
### Response 0.0

### Prompt Look up the recorded call for CCOC(=O)CSc1nnc(NC(=O)C2CC(=O)N(c3ccc(F)cc3)C2)s1 (centres undefined) in this test.
### Response 0.0

### Prompt Look up the recorded call for CN1CCC2(CC1)NC(=O)NC2=O in this test.
### Response 0.0
